cytotoxicity at 10 µM values for the compounds below.
# Assay remarks: Toxicity liver stage against HepG2, at 10uM
# Assay type: cell-based
# Parameters: test concentration 10 uM, cell line HepG2-A16-CD81EGFP
# Assay conditions: human, HepG2-A16-CD81EGFP cells; read-out: INHIBITION
// return numeric value only (unit: %, not printed)

Some solved entries appear below for comparison.
Compound	cytotoxicity at 10 µM [%]
COCC(C)NC(=O)c1cn(C(C)(C)C)c2ncccc12 (stereo unspecified)	2.69
COc1cccc(CNC(=O)c2cccnc2N)c1	20.1

**Query** What measured cytotoxicity at 10 µM goes with Cc1cnc2n(c1=O)C(CC(=O)NCc1ccccc1Cl)CS2 (stereo unspecified) ?
**Result** -7.86

**Query** Same question for COCCn1ccnc1C1CCCN(c2ncnc3c2CCC3)C1 (stereo unspecified) please.
**Result** 1.66

**Query** Same question for CCSc1cncc(N2CCC(NC(=O)C3CCCCC3)CC2)n1 please.
**Result** 16.8

**Query** Same question for Cc1nn(C2CCS(=O)(=O)C2)c(O)c1Cc1ccc(Br)cc1 (stereo unspecified) please.
**Result** -41.6
